# fold loss of TLR8 agonist potency compared to Compound No. 63-00 (IMDQ) per record follows
targetUnderTest: TLR8 (Homo sapiens (Human), UniProt Q9NR97)
Sequence (Q9NR97 27-1041): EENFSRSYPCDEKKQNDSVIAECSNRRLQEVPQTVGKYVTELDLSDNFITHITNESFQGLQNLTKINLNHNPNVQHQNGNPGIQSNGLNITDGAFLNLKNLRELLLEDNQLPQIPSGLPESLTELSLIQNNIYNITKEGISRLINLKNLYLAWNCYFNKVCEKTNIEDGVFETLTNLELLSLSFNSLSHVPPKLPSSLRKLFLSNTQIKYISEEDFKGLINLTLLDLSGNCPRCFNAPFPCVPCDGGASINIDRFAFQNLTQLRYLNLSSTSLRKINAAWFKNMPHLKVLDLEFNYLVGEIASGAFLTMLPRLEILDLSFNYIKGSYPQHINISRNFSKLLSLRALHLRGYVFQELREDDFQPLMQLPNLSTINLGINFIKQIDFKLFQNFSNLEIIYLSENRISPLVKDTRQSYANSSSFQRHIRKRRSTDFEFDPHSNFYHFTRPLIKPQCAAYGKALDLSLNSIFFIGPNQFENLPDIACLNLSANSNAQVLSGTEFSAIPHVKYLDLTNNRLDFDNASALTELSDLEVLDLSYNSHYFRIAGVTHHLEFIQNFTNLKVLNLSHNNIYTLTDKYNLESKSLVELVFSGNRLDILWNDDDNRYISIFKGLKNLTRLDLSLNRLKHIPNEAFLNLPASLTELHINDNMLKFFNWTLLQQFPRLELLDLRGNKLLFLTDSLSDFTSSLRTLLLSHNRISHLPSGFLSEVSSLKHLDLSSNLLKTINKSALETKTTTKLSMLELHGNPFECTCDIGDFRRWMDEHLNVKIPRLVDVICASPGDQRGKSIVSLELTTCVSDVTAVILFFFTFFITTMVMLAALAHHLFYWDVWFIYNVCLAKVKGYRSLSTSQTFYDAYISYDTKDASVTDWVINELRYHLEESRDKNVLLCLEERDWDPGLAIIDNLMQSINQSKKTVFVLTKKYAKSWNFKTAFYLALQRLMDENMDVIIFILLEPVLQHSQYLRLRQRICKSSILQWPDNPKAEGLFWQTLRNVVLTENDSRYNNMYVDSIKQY
protocolText: TLR8 agonist bioactivity: induction of TNFα protein in monocyte cultures (ELISA, 24 h)
Type: cell-based
measurementSetup: less potent than IMDQ

Use these answered entries as a reference point.
CCCCCCCCC(=O)NCc1ccc(Cn2c(CCCC)nc3c(N)nc4ccccc4c32)cc1    10-26 fold
CCCCCCCCCCCCCCCC(=O)NCc1ccc(Cn2c(CCCC)nc3c(N)nc4ccccc4c32)cc1 [Compound No. 63-31, reference compound]    10-26 fold
CCCCCCCCCCCCCC(=O)NCc1ccc(Cn2c(CCCC)nc3c(N)nc4ccccc4c32)cc1    2.4 fold
CCCCCCCCCCC(=O)NCc1ccc(Cn2c(CCCC)nc3c(N)nc4ccccc4c32)cc1    10-26 fold
CCCCCCCCCC(=O)NCc1ccc(Cn2c(CCCC)nc3c(N)nc4ccccc4c32)cc1    10-26 fold

Next up:
Look at this compound and give its reported fold loss of TLR8 agonist potency compared to Compound No. 63-00 (IMDQ). `CCCCc1nc2c(N)nc3ccccc3c2n1Cc1ccc(CNC(=O)CC2CC2)cc1`
7 fold
